- Target system: T1, cynomolgus monkey IL-6 (cynomolgus monkey, UniProt P79341 28-212, limits assumed)
- T1 construct: Immobilised on the Biacore chip
- Test details: SPR (Biacore), periplasmic Fab
pKd values by entry
Scale note: pKd = -log10(concentration in M).

| Binder | pKd |
| --- | --- |
| 55E10 (Fab, V domains shown, Periplasmic Fab; Suffix 'g1' not explained; also called 55E10g1) VH: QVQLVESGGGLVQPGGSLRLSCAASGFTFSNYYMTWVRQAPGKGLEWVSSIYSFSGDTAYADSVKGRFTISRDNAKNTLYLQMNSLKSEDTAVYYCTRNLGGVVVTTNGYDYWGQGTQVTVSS VL: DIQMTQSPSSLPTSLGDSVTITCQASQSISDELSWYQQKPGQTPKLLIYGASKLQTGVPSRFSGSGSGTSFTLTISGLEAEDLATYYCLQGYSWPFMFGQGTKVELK | 9.32 |
| 55A11 (Fab, V domains shown, Periplasmic Fab; Suffix 'd' of the label not explained; also called 55A11d) VH: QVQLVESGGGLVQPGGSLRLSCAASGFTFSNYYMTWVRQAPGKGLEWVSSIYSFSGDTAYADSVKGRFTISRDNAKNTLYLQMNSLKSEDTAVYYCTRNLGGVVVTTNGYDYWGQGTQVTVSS VL: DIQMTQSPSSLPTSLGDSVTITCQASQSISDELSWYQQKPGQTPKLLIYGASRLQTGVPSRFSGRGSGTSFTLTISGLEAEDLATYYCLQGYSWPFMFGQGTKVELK | 9.25 |

Provide pKd value for the following binder: 55C11 (Fab, V domains shown, Periplasmic Fab; Suffix 'f' not explained; also called 55C11f) VH: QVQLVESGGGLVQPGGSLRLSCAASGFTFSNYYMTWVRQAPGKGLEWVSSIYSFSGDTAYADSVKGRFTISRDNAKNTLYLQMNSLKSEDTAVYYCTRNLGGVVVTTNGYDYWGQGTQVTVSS VL: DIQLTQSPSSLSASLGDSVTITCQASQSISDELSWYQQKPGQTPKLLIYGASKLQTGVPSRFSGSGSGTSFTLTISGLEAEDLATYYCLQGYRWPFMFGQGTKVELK
9.50

Using the record for 48H1 (Fab, V domains shown, Periplasmic Fab; Suffix 'g2, R4' not explained; also called 48H1g2, R4) VH: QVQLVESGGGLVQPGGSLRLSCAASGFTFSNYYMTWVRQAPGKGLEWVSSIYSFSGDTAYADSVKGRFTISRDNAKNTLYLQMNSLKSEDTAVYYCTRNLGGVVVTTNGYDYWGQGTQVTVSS VL: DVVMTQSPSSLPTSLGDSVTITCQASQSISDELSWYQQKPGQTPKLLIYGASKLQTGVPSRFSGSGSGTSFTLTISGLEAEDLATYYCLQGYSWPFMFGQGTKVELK , state its measured pKd.
9.07
